Target: T1, B-Raf kinase, P15056
T1 chain: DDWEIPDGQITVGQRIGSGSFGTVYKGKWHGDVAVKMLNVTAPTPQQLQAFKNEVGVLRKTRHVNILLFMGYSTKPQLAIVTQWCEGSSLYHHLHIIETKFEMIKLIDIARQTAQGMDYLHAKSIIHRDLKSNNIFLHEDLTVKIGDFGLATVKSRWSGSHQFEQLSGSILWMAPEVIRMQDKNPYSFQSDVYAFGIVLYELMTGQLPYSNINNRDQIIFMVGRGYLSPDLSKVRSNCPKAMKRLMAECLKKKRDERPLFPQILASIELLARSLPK
Experiment: binding affinity with BRAF, Table 2 (method not given; the Methods describe fluorescence titration)
Where no end group is shown, it is not given here. [ ]: non-standard residue; d: D form. Dab = NCC[C@H](N)C(=O)O
Reported pKd values follow for various binders
pKd field: float, defined as -log10 of concentration (mol/L).

Some binders with recorded pKd:
VCRKTRHVNILLCM (modifications not checked) [SEQ ID NO: 33 (…)]; 6.44
VLRKTRHVNILLFM (modifications not checked) [SEQ ID NO: 16 (…)]; 5.24
V[Dab]RKKRHVNELLDMG [SEQ ID NO: 54 (VDab…)]; 6.43

Value of pKd reported for the binder VLRKKRHVNELLFMG (modifications not checked) [SEQ ID NO: 53 (…)] is 5.72

Values from patent US20220127585A1
